# experiment-notes: In vivo PK (I.V./P.O.)
# Set-up: species or system mice
# condition: male, CD1, mouse, plasma, iv, 1 mg/kg; I.V.; read-out: I.V. t1/2 (converted)
measurement-label: half-life (min)
Give the value in min but do not write min after it.

The compound identified as `O=C(O)c1cccc(-c2cnc(Nc3ccccc3F)o2)c1` registered its half-life at 84

###

A collection of compounds and their measured maximal fold induction
# Tested on: NF-κB
# experiment-notes: High throughput assay for NF-κB reporter activity (luciferase) in stably transfected SH-SY5Y cells
# Assay type: cell-based, human
# condition: Homo sapiens, 24 h, read-out: Emax
Answer with a number only.

The compound identified as `Nc1cccc(-c2cnc(Nc3ccccc3F)o2)c1` registered its maximal fold induction at 0.55

The compound identified as `O=C(O)c1cccc(-c2cnc(Nc3c(F)cc(F)cc3F)o2)c1` registered its maximal fold induction at 14.1

The compound identified as `COC(=O)c1ccccc1-c1cnc(Nc2ccc(F)cc2F)o1` registered its maximal fold induction at 4.45

More entries:
The compound identified as `O=C(O)c1ccccc1-c1cnc(Nc2ccccc2F)o1` registered its maximal fold induction at 5.37

The compound identified as `COC(=O)c1ccccc1-c1cnc(Nc2ccc(F)cc2)o1` registered its maximal fold induction at 2.97
